System: NCI-H522 lung
Experimental protocol: NCI-60 one-dose screen, 48 h
Experimental setup: 10 µM unless noted
This is part of a sample that, as a whole, favours compounds with a hit. Of some 83,000 tested, about 20% had one in any assay. Calls of active or inactive are those of the source. How the source made its calls: active means growth percent below 10; inactive means the rest.
Could you please pick one outcome from this set? active, inactive

{"Compound": "C#CCOc1ccc(C2=NN(CC3CC3)C3N=C(Cl)c4ncn(CC5CC5)c4N23)cc1OCC#C (centres undefined)", "Tgt": "NCI-H522 lung", "Assigned class": "inactive"}
{"Compound": "CCn1cc(-c2ccnc(NCCNS(=O)(=O)c3cccc4ccccc34)c2)c(-c2cccc(O)c2)n1", "Tgt": "NCI-H522 lung", "Assigned class": "inactive"}
{"Compound": "NS(=O)(=O)c1ccc(CCN2C(=O)/C(=C\\c3ccccc3)C=C2c2ccc(Cl)cc2)cc1", "Tgt": "NCI-H522 lung", "Assigned class": "inactive"}
{"Compound": "Ic1ccc2[nH]cc(SSc3c[nH]c4ccc(I)cc34)c2c1", "Tgt": "NCI-H522 lung", "Assigned class": "active"}
{"Compound": "Cc1ccc(Oc2c(/C=N/NC(=O)Cn3c(=O)sc4ccccc43)c(C)nn2-c2ccccc2)cc1", "Tgt": "NCI-H522 lung", "Assigned class": "inactive"}

**Q:** Record lookup: outcome of this test for CC(=O)OC[C@]12CC[C@@H](C(=O)CBr)[C@@H]1[C@H]1CC[C@@H]3[C@@]4(C)CCCNC(C)(C)[C@@H]4CC[C@@]3(C)[C@]1(C)CC2 ?
**A:** active

**Q:** Outcome? CC(C)[C@H]1CCC2=C3CC[C@]45OC(=O)[C@@]6(CCC(C)(C)C[C@H]64)CC[C@@]5(C)[C@]3(C)CC[C@@]21C
**A:** inactive

**Q:** What was the test verdict on CCc1cccc(Cl)c1 ?
**A:** inactive

**Q:** State the result this test recorded for CCOC(=O)c1c[nH]n2c(=S)ncnc12 .
**A:** inactive

---

System: HCT-15 colon
Experimental protocol: NCI-60 one-dose screen, 48 h
Experimental setup: 10 µM unless noted
The panel holds about 83,000 compounds, 20% with a hit somewhere; the sample as a whole holds those more often. The source made the active and inactive calls. How the source made its calls: active means growth percent below 10; inactive means the rest.
Output constraint: value belongs to active, inactive

Would you please look over these solved cases?
{"Chemical smiles": "O=C1COCCN1c1ccc(NCc2cn(Cc3ccccc3)c3ccccc23)cc1", "Assigned class": "inactive"}
{"Chemical smiles": "COc1ccc2c(c1)c(-c1noc(-c3cn(C)c4ncc(F)cc34)n1)cn2C", "Assigned class": "inactive"}
{"Chemical smiles": "Cc1ccc(-c2cc(O)c(-c3ccc(C)cc3C)cc2O)c(C)c1", "Assigned class": "inactive"}

Turning now to a further compound:
**Q:** Test call for this compound, please: C[C@H]1[C@H](C)CC[C@]2(C(=O)O)CC[C@]3(C)C(=CC[C@@H]4[C@@]5(C)C/C(=C/c6ccco6)C(=O)C(C)(C)[C@@H]5CC[C@]43C)[C@H]12
**A:** active

---

Tested on: SN12C renal
Experimental protocol: NCI-60 one-dose screen, 48 h (100 = growth as untreated, 0 = no growth, -100 = all killed)
Experimental setup: 10 µM unless noted
About 83,000 compounds went through this panel and 20% of them were active in at least one assay; those are over-represented in the sample as a whole.
Measurement label: growth (%)
The reply should be a number in %, with the unit left off.

Below are worked cases with known answers.
{"Compound": "O=[N+]([O-])c1cc([N+](=O)[O-])c(NN=C(c2ccc(O)cc2)c2ccc(O)cc2)cc1Cl", "growth / %": -78.6}
{"Compound": "O=C(Nc1cccc(C2=NCCN2)c1)c1cccc(C(=O)Nc2cccc(C3=NCCN3)c2)c1", "growth / %": 95.7}
{"Compound": "CCN(CC)c1ccc2cc(NC(=O)OCCNC(=O)CCNC(=O)[C@H](CC(C)C)NC(=O)C(C)(C)NC(=O)C(C)(C)NC(=O)[C@H](CC(C)C)NC(=O)CCNC(=O)C(C)(C)NC(=O)[C@H](CC(C)C)NC(=O)CCNC(=O)[C@@](C)(CC)NC(=O)[C@H](C)NC(=O)CCNC(=O)C(C)(C)NC(=O)[C@H](C)NC(=O)[C@@H]3CCCN3C(=O)[C@@](C)(CC)NC(=O)[C@H](Cc3ccccc3)NC(=O)C3CCCN3C(=O)C(C)(C)NC(=O)C3CCCN3C(=O)C(C)(C)NC(C)=O)c(=O)oc2c1 (some centres undefined)", "growth / %": -74.6}

Kindly consider the entry below.
**Q:** Output growth of CN(C)CCCNc1nc(-c2cccc(C(Cl)(Cl)Cl)c2)nc(C(Cl)(Cl)Cl)n1
**A:** 102

---

Tested on: SK-MEL-28 melanoma
Experimental protocol: NCI-60 one-dose screen, 48 h
Experimental setup: 10 µM unless noted
The panel holds about 83,000 compounds, 20% with a hit somewhere; the sample as a whole holds those more often. Calls of active or inactive are those of the source. Rule for the calls: active = growth percent below 10; inactive = the rest.
Response enum: label 1 = active, label 0 = inactive

Would you please look over these solved cases?
{"Compound": "Cc1cc[n+](CCCCCCCCCC[n+]2ccc(C)cc2)cc1", "Assigned class": "label 0"}
{"Compound": "C=C(C)[C@@H]1CC[C@]2(COC(=O)c3ccccc3C(=O)O)CC[C@]3(C)[C@H](CC[C@@H]4[C@@]5(C)CC[C@H](OC(=O)c6ccccc6C(=O)O)C(C)(C)[C@@H]5CC[C@]43C)[C@@H]12", "Assigned class": "label 0"}
{"Compound": "Cc1cc(SC#N)ncn1", "Assigned class": "label 0"}
{"Compound": "O=C(O)CC1CCCCC1c1ccccc1 (stereo not drawn)", "Assigned class": "label 0"}
{"Compound": "O=C(O)c1cn(C2CC2)c2cc(N3CCN(Cc4c(O)ccc5ccccc45)CC3)c(F)cc2c1=O", "Assigned class": "label 0"}
{"Compound": "O=C(COc1cccc(/C=C2\\Oc3ccccc3C2=O)c1)c1ccc([N+](=O)[O-])cc1", "Assigned class": "label 0"}
{"Compound": "NC(=O)c1c(NC(=O)COC(=O)Cc2ccccc2F)sc2c1CCC2", "Assigned class": "label 0"}
{"Compound": "COc1ccc(CC(C#N)c2ccc(Cl)cc2)cc1 (stereo not drawn)", "Assigned class": "label 0"}

**Q:** What outcome does the record of this test show for CN(Cc1cccc(C(F)(F)F)c1)C(=O)[C@@H](CC(=O)N1CCC(N2CCCCC2)CC1)N1C(=O)[C@@H](N2C(=O)OC[C@@H]2c2ccccc2)[C@H]1/C=C/c1ccccc1 ?
**A:** label 0

**Q:** Which outcome did this test record for the compound Nc1cc(C(=O)O)[nH]c(=S)n1 ?
**A:** label 0

**Q:** Recorded test outcome, item COc1cc(/C=C/C(=O)/C=C/c2ccc(-n3ccnc3C)cc2)ccc1O
**A:** label 0

---

System: ACHN renal
Experimental protocol: NCI-60 one-dose screen, 48 h
Experimental setup: 10 µM unless noted
Compounds without any hit were thinned out: in the full panel of roughly 83,000, 20% have a hit. Active and inactive are the calls of the source. The calls were made as follows: active = growth percent below 10; inactive = the rest.
Tick one outcome: label 1 = active, label 0 = inactive

Worked examples follow.
{"Chemical smiles": "O=C(Nc1cccc2ccccc12)c1cc2ccccc2cc1O", "Assigned class": "label 1"}
{"Chemical smiles": "COc1ccc(OC)c(NC=O)c1", "Assigned class": "label 0"}
{"Chemical smiles": "CC[C@]12C=CCN3CC[C@@]4(c5ccc(OC)cc5N(C)[C@H]4[C@@](O)(C(=O)OC)[C@@H]1OC(=O)CCC(=O)N[C@H](Cc1c[nH]c4ccccc14)C(=O)OC)[C@@H]32", "Assigned class": "label 1"}
{"Chemical smiles": "CC[C@]12C=CCN3CC[C@@]4(c5ccc(OC)cc5N(C)[C@H]4[C@@](O)(C(=O)OC)[C@@H]1OC(=O)CCC(=O)O[C@H]1CC[C@H]4[C@@H]5CCC6=CC(=O)CC[C@@H]6[C@H]5CC[C@]14C)[C@@H]32", "Assigned class": "label 1"}
{"Chemical smiles": "Cc1nc(Cl)cc(N(c2cc(Cl)nc(C)n2)c2ncc(C(=O)Nc3c(C)cccc3Cl)s2)n1", "Assigned class": "label 0"}
{"Chemical smiles": "NC(=S)Cc1ccccc1", "Assigned class": "label 0"}
{"Chemical smiles": "Cc1ccc(-c2cc(O)c(-c3ccc(C)cc3C)cc2O)c(C)c1", "Assigned class": "label 0"}

**Q:** So what was the verdict on CC1(C)CC[C@]2(C(=O)O)CC[C@]3(C)[C@H](CC[C@@H]4[C@@]5(C)CCC(=O)C(C)(C)[C@@H]5CC[C@]43C)[C@H]2[C@H]1OC(=O)C(F)(F)F in this test?
**A:** label 1

---

Test system: MDA-MB-231 breast
Experimental protocol: NCI-60 one-dose screen, 48 h (100 = growth as untreated, 0 = no growth, -100 = all killed)
Experimental setup: 10 µM unless noted
About 83,000 compounds went through this panel and 20% of them were active in at least one assay; those are over-represented in the sample as a whole.
Measurement label: growth (%)
Response body: numeric value in %, unit text excluded.

Recorded results for 5 molecules are shown here.
{"Chemical smiles": "COc1cc(OC)cc(C(=O)Nc2cc(-c3cccnc3)nc(NCCCN3CCOCC3)n2)c1", "Value": 79.6}
{"Chemical smiles": "CCCCCCCCCCCCCCCCCCNC(=S)N/N=C/c1ccc(OC)c(OC)c1", "Value": 92.7}
{"Chemical smiles": "COCCCNc1nc(NC(=O)c2cc(Br)cc(C(F)(F)F)c2)cc(-c2cccnc2)n1", "Value": 75.8}
{"Chemical smiles": "C=CCc1nc2ccccc2s1", "Value": 103}
{"Chemical smiles": "COc1c(B(O)O)cccc1-c1nc2ccc3[nH]ncc3c2c2c1CCC2", "Value": 40.7}

Consider the record given below.
**Q:** Lab note: record growth of CCOC(=O)c1c[nH]n2c(=S)ncnc12 tested on MDA-MB-231 breast.
**A:** 109
